Data provenance is patent US7713991B2.

Target or test system: aldosterone synthase (Rattus norvegicus, UniProt P30099)
Sequence (P30099 35-510): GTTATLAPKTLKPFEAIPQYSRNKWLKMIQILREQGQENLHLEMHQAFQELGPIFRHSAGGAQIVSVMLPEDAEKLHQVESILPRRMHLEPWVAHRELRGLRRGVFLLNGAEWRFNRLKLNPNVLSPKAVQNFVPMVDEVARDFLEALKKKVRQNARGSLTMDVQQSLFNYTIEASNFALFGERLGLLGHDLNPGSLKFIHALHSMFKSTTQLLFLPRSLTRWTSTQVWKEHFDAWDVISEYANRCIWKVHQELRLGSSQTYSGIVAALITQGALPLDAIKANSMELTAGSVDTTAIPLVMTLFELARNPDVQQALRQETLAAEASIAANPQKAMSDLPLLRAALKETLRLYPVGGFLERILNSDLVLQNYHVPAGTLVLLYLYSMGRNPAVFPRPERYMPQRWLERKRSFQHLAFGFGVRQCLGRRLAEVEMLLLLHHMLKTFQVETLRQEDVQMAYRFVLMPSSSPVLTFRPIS
pIC50: −log10 of the molar value.
Measured attribute: pIC50

Ask: For Cl.c1ccc2c(-c3cccc4cncn34)cccc2c1 [Example 1, hydrochloride] , what is its reported pIC50?
Result: ~7.30

----------
Measured attribute: melting point

In [3]: df
Out[3]:
                               compound         result
0  Cl.c1ccc(-c2ccccc2-c2cccc3cncn23)cc1  200 to 201 °C

# batch: return melting point for each of the 4 compounds below
1. Cl.c1ccc2c(-c3cccc4cncn34)coc2c1
2. Cl.O=C(OCc1ccccc1)N1CC=C(c2cccc3cncn23)CC1
3. Cl.c1ccc(-c2ccc(-c3cccc4cncn34)cc2)cc1
4. Cl.c1ccc2c(-c3cccc4cncn34)cccc2c1 [Example 1]

Result:
1. 96 to 98 °C
2. 149 to 152 °C
3. 240 to 242 °C
4. 222 to 223 °C
